meta.source: ChEMBL document CHEMBL1961873

Exercise: for every item that follows, state its recorded inhibition.
# measurement-target: Leucine-rich repeat serine/threonine-protein kinase 2 (Homo sapiens);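 note: mean percent inhibition of LRRK2 measured in the GSK PKIS kinase inhibitor set screen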
# protocol-conditions: at 1 µM
One number for each entry, in %.

Worked cases, inhibition given:
[
  {
    "smiles-notation": "FC(F)(F)CNc1nccc(-c2cnn3ncccc23)n1",
    "measurement-target": "Leucine-rich repeat serine/threonine-protein kinase 2 (Homo sapiens)",
    "value-units": "%",
    "inhibition": 8.2
  },
  {
    "smiles-notation": "COC(=O)Nc1nc2cc(Oc3ccc(NC(=O)Nc4ccccc4)cc3)ccc2[nH]1",
    "measurement-target": "Leucine-rich repeat serine/threonine-protein kinase 2 (Homo sapiens)",
    "value-units": "%",
    "inhibition": 6.86
  },
  {
    "smiles-notation": "O=C(O[C@H]1CN[C@H](C#Cc2cc3ncnc(Nc4ccc(OCc5cccc(F)c5)c(Cl)c4)c3s2)C1)N1CCOCC1",
    "measurement-target": "Leucine-rich repeat serine/threonine-protein kinase 2 (Homo sapiens)",
    "value-units": "%",
    "inhibition": 7.32
  },
  {
    "smiles-notation": "CNC(=O)c1ncccc1Nc1nc(Nc2cc3c(cc2OC)CCCN3C(=O)CN(C)C)nc2[nH]ccc12",
    "measurement-target": "Leucine-rich repeat serine/threonine-protein kinase 2 (Homo sapiens)",
    "value-units": "%",
    "inhibition": 26.6
  }
]

Let us move to another entry and its inhibition.
Query COc1ccc(Nc2ncc(-c3ccccc3)o2)cc1OC yields inhibition of 13.2
